procedure.summary: Fraction unbound in human occipital cortex at 1 uM after 6 hrs by equilibrium dialysis method
Returns: string. Value is criterion met if measured fraction unbound at 6 h, 1 µM is below 0.09, and criterion not met if it is greater than or equal to it.

compound	cat
CC(NC(C)(C)C)C(=O)c1cccc(Cl)c1 (centres undefined) [BUPROPION]	criterion not met

Ask: Lab note: fraction unbound at 6 h, 1 µM threshold 0.09. Does this compound come in strictly under it? CNCCCN1c2ccccc2CCc2ccccc21 [DESIPRAMINE]
Result: criterion met

Ask: Proceed to O=c1n(CCCN2CCN(c3cccc(Cl)c3)CC2)nc2ccccn12 [TRAZODONE]
Result: criterion met

Ask: Proceed to CO[C@H]1/C=C/O[C@@]2(C)Oc3c(C)c(O)c4c(O)c(c(/C=N/N5CCN(C)CC5)c(O)c4c3C2=O)NC(=O)/C(C)=C\C=C\[C@H](C)[C@H](O)[C@@H](C)[C@@H](O)[C@@H](C)[C@H](OC(C)=O)[C@@H]1C [RIFAMPIN]
Result: criterion not met

Ask: Proceed to CN(C)CCCN1c2ccccc2Sc2ccc(Cl)cc21 [CHLORPROMAZINE]
Result: criterion met

Ask: Proceed to NS(=O)(=O)Cc1noc2ccccc12 [ZONISAMIDE]
Result: criterion not met

Ask: Proceed to Cc1ccc(C(=O)c2cc(O)c(O)c([N+](=O)[O-])c2)cc1 [TOLCAPONE]
Result: criterion met

Ask: Proceed to Cc1c(C(=O)NN2CCCCC2)nn(-c2ccc(Cl)cc2Cl)c1-c1ccc(Cl)cc1 [RIMONABANT]
Result: criterion met
